Sourced from patent US9346761B2

- systemName: Full-length human PRMT1 isoform 1 (Homo sapiens, UniProt Q99873)
- Construct: GST-tagged PRMT1
- Sequence (Q99873 with tags, fused parts or gaps): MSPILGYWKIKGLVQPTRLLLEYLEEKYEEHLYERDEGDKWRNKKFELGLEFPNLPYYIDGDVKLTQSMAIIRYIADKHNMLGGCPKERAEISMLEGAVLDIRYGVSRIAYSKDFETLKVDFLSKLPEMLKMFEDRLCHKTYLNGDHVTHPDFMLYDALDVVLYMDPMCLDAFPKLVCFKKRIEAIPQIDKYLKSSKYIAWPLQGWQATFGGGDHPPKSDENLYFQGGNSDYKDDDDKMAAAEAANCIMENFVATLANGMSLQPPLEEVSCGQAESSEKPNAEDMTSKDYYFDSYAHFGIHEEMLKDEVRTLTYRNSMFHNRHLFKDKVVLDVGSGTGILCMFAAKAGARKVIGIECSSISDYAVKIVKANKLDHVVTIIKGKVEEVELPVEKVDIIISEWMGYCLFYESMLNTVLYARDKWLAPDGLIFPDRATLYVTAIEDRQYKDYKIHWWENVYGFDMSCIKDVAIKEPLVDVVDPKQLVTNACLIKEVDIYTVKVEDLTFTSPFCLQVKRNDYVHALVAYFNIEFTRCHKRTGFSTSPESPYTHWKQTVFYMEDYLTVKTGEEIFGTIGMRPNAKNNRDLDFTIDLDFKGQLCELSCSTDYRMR
- assay: PRMT1 biochemical assay (3H-SAM Flashplate, peptide substrate)
pIC50: −log10 of the molar value.
attributeMeasured: pIC50

Worked set:
Cc1ccc(-c2n[nH]cc2CN(C)CCN)c(C)c1: 6.00 to 7.00
Cc1ccc(Cl)c(-c2n[nH]cc2CN(C)CCN)c1: 6.00 to 7.00
CC(C)CC(=O)N1CCN(c2ccc(-c3n[nH]cc3CN(C)CCN)cc2)CC1: 6.00 to 7.00
CN(CCN)Cc1c[nH]nc1-c1cccc(C#N)c1: 6.00 to 7.00
CN(CCN)Cc1cn(CC2CCOCC2)nc1-c1ccc(F)cc1: 5.00 to 5.52
C=CC(=O)Nc1cccc(-c2[nH]ncc2CN(C)CCNC)c1: > 7.00
CN(CCN)Cc1c[nH]nc1-c1cc(F)cc(F)c1: > 7.00
CCn1cc(CN(C)CCNC)c(-c2ccc(OC(C)C)cc2)n1: > 7.00
CCN(CC)C(=O)c1ccc(-c2n[nH]cc2CN(C)CCN)cc1: 6.00 to 7.00
CN(CCN)Cc1c[nH]nc1-c1cc(Cl)cc(Cl)c1: > 7.00

Considering CN(CCN)Cc1c[nH]nc1-c1ccc(Oc2cccc(F)c2)cc1 , its pIC50 with Full-length human PRMT1 isoform 1 (Homo sapiens, UniProt Q99873) was recorded as > 7.00
